Ref: patent US8039514B2

Listing of entries alongside the reported pIC50.
Target: human calcium-sensing receptor (CaSR) (Homo sapiens)
Sequence (P41180 20-1078): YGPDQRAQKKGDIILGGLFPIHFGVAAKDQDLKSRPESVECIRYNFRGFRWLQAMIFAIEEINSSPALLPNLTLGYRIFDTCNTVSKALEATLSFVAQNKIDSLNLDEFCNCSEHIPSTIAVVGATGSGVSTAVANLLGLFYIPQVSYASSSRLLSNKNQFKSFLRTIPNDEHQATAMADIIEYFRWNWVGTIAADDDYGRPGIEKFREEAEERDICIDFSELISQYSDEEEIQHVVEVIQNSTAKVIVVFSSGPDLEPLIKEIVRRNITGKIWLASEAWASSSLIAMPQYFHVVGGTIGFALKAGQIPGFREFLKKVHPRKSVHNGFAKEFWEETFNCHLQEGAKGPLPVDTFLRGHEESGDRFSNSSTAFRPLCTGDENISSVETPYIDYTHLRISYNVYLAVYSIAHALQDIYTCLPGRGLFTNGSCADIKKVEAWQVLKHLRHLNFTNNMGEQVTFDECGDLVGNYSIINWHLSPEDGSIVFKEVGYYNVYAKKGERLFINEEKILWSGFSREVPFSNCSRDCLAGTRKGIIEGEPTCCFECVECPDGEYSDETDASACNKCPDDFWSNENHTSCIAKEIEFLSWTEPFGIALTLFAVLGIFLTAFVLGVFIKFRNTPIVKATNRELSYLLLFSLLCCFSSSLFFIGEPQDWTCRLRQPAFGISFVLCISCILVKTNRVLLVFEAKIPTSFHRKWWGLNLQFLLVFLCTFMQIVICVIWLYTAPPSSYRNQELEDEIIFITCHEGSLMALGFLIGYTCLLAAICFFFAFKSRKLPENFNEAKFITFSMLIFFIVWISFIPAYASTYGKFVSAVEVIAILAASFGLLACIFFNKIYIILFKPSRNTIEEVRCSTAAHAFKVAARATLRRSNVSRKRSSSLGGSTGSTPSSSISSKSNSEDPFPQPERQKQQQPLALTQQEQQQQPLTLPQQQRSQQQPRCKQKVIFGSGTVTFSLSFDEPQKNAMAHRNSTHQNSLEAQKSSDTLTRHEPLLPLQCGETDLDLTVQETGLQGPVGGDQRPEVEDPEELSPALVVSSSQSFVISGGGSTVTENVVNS
Assay: intracellular Ca assay, CaSR antagonist activity in HEK293/hCaSR cells
Details: Fura2-AM, inhibition of response to calcium chloride ligand solution, read-out: IC50 values according to the intracellular Ca assay (CaSR antagonist activity)
pIC50: −log10 of the molar value.

Examples from the recorded data:
# MOLECULE, MEASURED_ATTRIBUTE, VALUE
measured = [
    ("CN(C[C@H](O)CNC(C)(C)Cc1ccc2ccccc2c1)S(=O)(=O)c1cccc(-c2ccc(NC(=O)CCC(=O)O)cc2)c1 [Exp. 3-21]", "pIC50", "6.00 to 6.52"),
    ("CN(C[C@H](O)CNC(C)(C)CC1Cc2ccccc2C1)S(=O)(=O)c1cccc(-c2ccc(C(=O)O)c(Cl)c2)c1 [Exp. 3-54]", "pIC50", "≥ 6.52"),
    ("CN(C[C@H](O)CNC(C)(C)CC1Cc2ccccc2C1)S(=O)(=O)c1c(Cl)cc(-c2ccc(CC(=O)O)cc2)cc1Cl [Exp. 3-140]", "pIC50", "≥ 6.52"),
    ("CN(C[C@H](O)CNC(C)(C)CC1Cc2ccccc2C1)S(=O)(=O)c1cccc(-c2cccc(C=CC(=O)O)c2)c1 [Exp. 3-58]", "pIC50", "≥ 6.52"),
    ("CN(C[C@H](O)CNC(C)(C)CC1Cc2ccccc2C1)S(=O)(=O)c1cccc(-c2cccc(C(=O)O)c2F)c1 [Exp. 3-201]", "pIC50", "≥ 6.52"),
]

Item under review: CC(C)(CC1Cc2ccccc2C1)NC[C@@H](O)CNS(=O)(=O)c1cccc(-c2cccc(C(=O)O)c2)c1 [Exp. 14-2] . Reported pIC50? ≥ 6.52

Could you do the same for CN(C[C@H](O)CNC(C)(C)Cc1ccc2ccccc2c1)S(=O)(=O)c1cccc(-c2cc(F)c(C(=O)O)c(F)c2)c1 [Exp. 3-25] , please? 6.00 to 6.52

Could you do the same for CN(C[C@H](O)CNC(C)(C)CC1Cc2ccccc2C1)S(=O)(=O)c1cccc(-c2ccc(NC(=O)CCC(=O)O)cc2)c1 [Exp. 3-59] , please? ≥ 6.52

Could you do the same for CN(C[C@H](O)CNC(C)(C)Cc1ccc2ccccc2c1)S(=O)(=O)c1cccc(-c2ccc(C(=O)O)cc2)c1 [Exp. 3-6] , please? 6.00 to 6.52

Could you do the same for CN(C[C@H](O)CNC(C)(C)CC1Cc2ccccc2C1)S(=O)(=O)c1c(Cl)cc(-c2cccc(C(=O)O)c2)cc1Cl [Exp. 3-126] , please? ≥ 6.52

Could you do the same for CN(C[C@H](O)CNC(C)(C)Cc1ccc2ccccc2c1)S(=O)(=O)c1ccc(-c2ccccc2C(=O)O)cc1 [Exp. 3-29] , please? 6.00 to 6.52

Could you do the same for Cc1ccc(-c2cccc(S(=O)(=O)N(C)C[C@H](O)CNC(C)(C)Cc3ccc4ccccc4c3)c2)cc1C(=O)O [Exp. 3-7] , please? 6.00 to 6.52

Could you do the same for CCc1cc(-c2c(F)cccc2CCC(=O)O)ccc1S(=O)(=O)N(C)C[C@H](O)CNC(C)(C)CCCc1ccsc1 [Exp. 8-24] , please? ≥ 6.52

Could you do the same for CCc1cc(-c2c(F)cccc2CCC(=O)O)ccc1S(=O)(=O)N(C)C[C@H](O)CNC(C)(C)CCCc1ccccc1 [Exp. 5-74] , please? ≥ 6.52
